tested.target: Carbonic anhydrase 2 (Homo sapiens, UniProt P00918)
procedure.details: Inhibition of human CA2 incubated for 15 mins by stopped-flow CO2 hydration kinetic assay based Cheng-Prusoff equation analysis
pKi: −log10 of the molar value.
measured.attribute: pKi

Find pKi (Carbonic anhydrase 2 (Homo sapiens, UniProt P00918)) for the entry "COc1ccc(S(=O)(=O)N2C[C@H](NC(=O)C(C)(C)C)C[C@@H]2C(=O)NO)cc1"
< 4.00

Please state recorded pKi (tested on Carbonic anhydrase 2 (Homo sapiens, UniProt P00918)) of "O=C(N[C@H]1C[C@H](C(=O)NO)N(S(=O)(=O)c2ccc(Cl)c(Cl)c2)C1)c1cccs1"
< 4.00

----------
# Carbonic anhydrase 1 (Homo sapiens): Ki values follow
# Sequence (P00915 whole entry): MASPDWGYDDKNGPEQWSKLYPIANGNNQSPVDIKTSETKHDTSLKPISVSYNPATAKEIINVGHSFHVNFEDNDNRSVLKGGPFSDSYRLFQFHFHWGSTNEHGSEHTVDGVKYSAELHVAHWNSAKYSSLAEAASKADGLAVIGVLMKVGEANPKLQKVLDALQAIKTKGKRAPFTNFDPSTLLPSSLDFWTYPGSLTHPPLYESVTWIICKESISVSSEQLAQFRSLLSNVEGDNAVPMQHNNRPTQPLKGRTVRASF

// solved cases for Ki follow
> print(dat)
                           structure.smiles    result
1  O=C(NO)[C@H]1C[C@H](NS(=O)(=O)c2ccc(-c3ccccc3)cc2)CN1S(=O)(=O)c1ccc(-c2ccccc2)cc1  > 100 µM
2  CCCCCCO[C@H]1CCN(S(=O)(=O)c2ccc(Cl)cc2)[C@H]1C(=O)NO  > 100 µM

# query: Ki of entry "O=C(N[C@H]1C[C@H](C(=O)NO)N(S(=O)(=O)c2ccc(Cl)c(Cl)c2)C1)c1cccs1"
> 100 µM

Name the reported Ki value associated with the compound "COc1ccc(S(=O)(=O)N2C[C@@H](NS(=O)(=O)c3ccc(-c4ccccc4)cc3)C[C@@H]2C(=O)O)cc1"
8.4 µM

// query Ki value for entry "COc1ccc(S(=O)(=O)N2CCC[C@@H]2C(=O)NO)cc1"
> 100 µM

----------
pKi: −log10 of the molar value.
Measured pKi (Matrix metalloproteinase-9 (Homo sapiens, UniProt P14780))
measured.attribute: pKi

> print(dat)
                           structure.smiles                             tested.target  measured.number
1  O=C(NO)[C@H]1C[C@H](NS(=O)(=O)c2ccc(-c3ccccc3)cc2)CN1S(=O)(=O)c1ccc(Cl)c(Cl)c1  Matrix metalloproteinase-9 (Homo sapiens, UniProt P14780)             7.24

[1] O=C(NO)[C@H]1C[C@H](n2cc(-c3ccccc3)nn2)CN1S(=O)(=O)c1ccc(Cl)c(Cl)c1
[2] O=C(N[C@@H]1C[C@H](C(=O)NO)N(S(=O)(=O)c2ccc(Cl)c(Cl)c2)C1)c1cccs1
Please state the entry with greater pKi among 1 and 2 . Answer by quoting the chosen item's label.
2
(2: 7.04, 1: 5.81)

----------
This document collects pKi values reported for 72 kDa type IV collagenase (Homo sapiens, UniProt P08253).
pKi: −log10 of the molar value.

> print(dat)
                           structure.smiles  measured.attribute  result
1  COc1ccc(S(=O)(=O)N2C[C@@H](NS(=O)(=O)c3ccc(-c4ccccc4)cc3)C[C@@H]2C(=O)O)cc1                 pKi  < 4.00
2  O=C(NO)[C@H]1C[C@H](NS(=O)(=O)c2ccc(-c3ccccc3)cc2)CN1S(=O)(=O)c1ccc(OC(F)(F)F)cc1                 pKi  < 4.00

Next item in the queue.
Recorded pKi for "O=C(NO)[C@H]1C[C@@H](NS(=O)(=O)c2ccc(-c3ccccc3)cc2)CN1S(=O)(=O)c1ccc(Cl)c(Cl)c1" with 72 kDa type IV collagenase (Homo sapiens, UniProt P08253), please?
< 5.00

----------
pKi: −log10 of the molar value.
So I've got pKi readings for Carbonic anhydrase 2 (Homo sapiens, UniProt P00918), take a look.

> print(dat)
                           structure.smiles                             tested.target  measured.attribute  result
1  O=C(Nc1ccc(S(=O)(=O)N2CCC[C@@H]2C(=O)NO)cc1)c1ccc([N+](=O)[O-])cc1  Carbonic anhydrase 2 (Homo sapiens, UniProt P00918)                 pKi  < 4.00
2  COc1ccc(S(=O)(=O)N2CCC[C@@H]2C(=O)NO)cc1  Carbonic anhydrase 2 (Homo sapiens, UniProt P00918)                 pKi  < 4.00
3  COc1ccc(S(=O)(=O)N2C[C@@H](NS(=O)(=O)c3ccc(-c4ccccc4)cc3)C[C@@H]2C(=O)O)cc1  Carbonic anhydrase 2 (Homo sapiens, UniProt P00918)                 pKi    5.21
4  O=C(NO)[C@H]1CCCN1S(=O)(=O)c1ccc(C#Cc2ccccc2)cc1  Carbonic anhydrase 2 (Homo sapiens, UniProt P00918)                 pKi  < 4.00

Give the reported pKi for "COc1ccc(S(=O)(=O)N2C[C@@H](NS(=O)(=O)c3ccc(-c4ccccc4)cc3)C[C@@H]2C(=O)NO)cc1" (system: Carbonic anhydrase 2 (Homo sapiens, UniProt P00918)).
< 4.00

Return pKi measured with Carbonic anhydrase 2 (Homo sapiens, UniProt P00918) given this compound: "O=C(N[C@@H]1C[C@H](C(=O)NO)N(S(=O)(=O)c2ccc(Cl)c(Cl)c2)C1)c1cccs1"
< 4.00
